Target: T1, Botulinum neurotoxin serotype C (BoNT/C) (Clostridium botulinum, UniProt P18640 2-1291)
T1 sequence: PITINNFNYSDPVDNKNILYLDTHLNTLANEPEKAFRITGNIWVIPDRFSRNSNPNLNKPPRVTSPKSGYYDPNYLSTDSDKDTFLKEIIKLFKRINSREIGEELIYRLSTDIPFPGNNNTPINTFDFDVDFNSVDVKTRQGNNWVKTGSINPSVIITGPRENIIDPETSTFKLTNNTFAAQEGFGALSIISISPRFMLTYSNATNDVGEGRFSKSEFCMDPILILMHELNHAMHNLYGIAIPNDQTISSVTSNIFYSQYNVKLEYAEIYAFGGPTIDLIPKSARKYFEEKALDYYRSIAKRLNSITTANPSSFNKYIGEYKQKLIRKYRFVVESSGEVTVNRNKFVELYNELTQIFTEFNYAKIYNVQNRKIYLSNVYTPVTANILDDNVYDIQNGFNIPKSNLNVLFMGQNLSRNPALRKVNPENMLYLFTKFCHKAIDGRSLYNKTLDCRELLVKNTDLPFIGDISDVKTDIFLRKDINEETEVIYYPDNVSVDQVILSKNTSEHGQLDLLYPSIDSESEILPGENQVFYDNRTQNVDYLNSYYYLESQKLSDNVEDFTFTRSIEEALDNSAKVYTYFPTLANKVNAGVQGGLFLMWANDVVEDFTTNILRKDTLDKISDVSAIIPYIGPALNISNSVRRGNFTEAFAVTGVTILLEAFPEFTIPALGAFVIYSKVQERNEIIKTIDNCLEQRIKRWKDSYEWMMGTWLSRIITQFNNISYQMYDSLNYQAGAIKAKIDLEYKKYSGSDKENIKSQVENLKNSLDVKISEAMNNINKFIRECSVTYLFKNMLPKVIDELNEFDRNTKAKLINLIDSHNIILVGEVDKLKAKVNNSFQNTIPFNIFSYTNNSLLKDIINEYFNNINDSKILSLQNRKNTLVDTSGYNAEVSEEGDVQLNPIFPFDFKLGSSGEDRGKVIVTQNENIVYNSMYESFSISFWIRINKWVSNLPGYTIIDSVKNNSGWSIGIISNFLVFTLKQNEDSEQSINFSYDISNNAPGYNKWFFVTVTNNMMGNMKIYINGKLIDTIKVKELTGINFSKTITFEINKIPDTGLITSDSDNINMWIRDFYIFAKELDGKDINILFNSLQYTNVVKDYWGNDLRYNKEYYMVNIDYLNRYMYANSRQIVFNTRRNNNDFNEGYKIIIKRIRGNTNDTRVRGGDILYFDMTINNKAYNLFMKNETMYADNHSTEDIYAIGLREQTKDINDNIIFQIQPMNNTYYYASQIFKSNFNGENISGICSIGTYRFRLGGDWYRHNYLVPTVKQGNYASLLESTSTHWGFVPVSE
Test: KinExA, IgG
QUANTITY_MEASURED: pKd
For clarity, pKd is expressed as the negative log10 of concentration in mol/L.

Lab note: measured pKd of 4C10.22 IgG (antibody, V domains shown) VH: QVQLVQSGGGVVQPGRSLRLSCGASGFKFSGFDMHWVRQAPGKGLEWVARISHDGSMADYADSLRGRFTISRDNSKNTLYLQMNSLRVEDTALYYCAKDPWRSGSYPAFEIWGQGTMVTVSS VL: EIVLTQSPSFLSAFIGDRITITCRASQGISNRLAWYQQKPGKAPNLLIYPASTLQSGVPSRFSGSGSGTDFTLTISSLQPEDFATYYCQQANSFPLTFGGGTKVEIKR was 11.72

Lab note: measured pKd of 4C10.23 IgG (antibody, V domains shown) VH: QVQLVQSGGGVVQPGRSLRLSCGASGFKFSGFDMHWVRQAPGKGLEWVARISHDGSMADYADSLRGRFTISRDNSKNTLYLQMNSLRVEDTALYYCAKDRWRSGSYPAFEIWGQGTMVTVSS VL: EIVLTQSPSFLSAFVGDRITITCRASKGIGNRLAWYQQKPGKAPNLLIHPASTLQSGVPSRFSGSGSGTDFTLTISSLQPEDFATYYCQQANSFPLTFGGGTKVEIKR was 11.18

Lab note: measured pKd of 4C10.15 IgG (antibody, V domains shown) VH: QVQLVQSGGGVVQPGRSLRLSCGASRFTFSGFDMHWVRQAPGKGLEWVARISHDGSMADYADSLRGRFTISRDNSKNTLYLQMNSLRVEDTALYYCAKDRWRSGSYPAFEIWGQGTMVTVSS VL: EIVLTQSPSFLSAFVGDRITITCRASKGIGNRLAWYQQKPGKAPNLLIHPASTLQSGVPSRFSGSGSGTDFTLTISSLQPEDFATYYCQQANSFPLTFGGGTKVEIKR was 10.91

Lab note: measured pKd of 4C10.5 IgG (antibody, V domains shown) VH: QVQLVQSGGGVVQPGRSLRLSCGASRFTFSGFDMHWVRQAPGKGLEWVARISHDGSMADYADSLRGRFTISRDNSKNTLYLQMNSLRVEDTALYYCAKDRWRSGSYPAFEIWGQGTMVTVSS VL: EIVLTQSPSFLSAFVGDRITITCRASQGISNRLAWYQQKPGKAPNLLIHPASTLQSGVPSRFSGSGSGTDFTLTISSLQPEDFATYYCQQANSFPLTFGGGTKVEIKR was 10.19

Lab note: measured pKd of 4C10.18 IgG (antibody, V domains shown) VH: QVQLVQSGGGVAQPGRSLRLSCGASRFTFSGFDMHWVRQAPGKGLEWVARISHDGSMADYADSLRGRFTISRDNSKNTLYLQMNSLRVEDTALYYCAKDRWRSGSYPAFEIWGQGTMVTVSS VL: EIVLTQSPSFLSAFVGDRITITCRASQGIGNRLAWYQQKPGKAPNLLIHPASTLQSGVPSRFSGSGSGTDFTLTISSLQPEDFATYYCQQAHRFPLTFGGGTKVEIKR was 10.97

Reference source: patent US20190256584A1
